B1: SNX8 (parent)
chain: LHQETQLIHVYLPLTSHILRAFVN

- Variants of: B1
- Test Summary: protein stability index of a GFP-peptide fusion (GPS, HEK-293T) (PSI 1-6); higher = more stable;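 also: lentivirally expressed fusions sorted by FACS into six bins by GFP to DsRed ratio, PSI derived from sequencing read proportions per bin multiplied by bin number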
- Condition Notes: c terminus: a fixed tail appended
Reported Endpoint: protein stability index
Response field accepts a number only; no unit should be typed.

Memo: L19N , reported protein stability index: 1.99

Memo: V23I , reported protein stability index: 1.96

Memo: P13T , reported protein stability index: 2.91

Memo: L14S , reported protein stability index: 2
